Listed here: items and their measured melting point.

Previously resolved entries follow.
-- ask Quick one: melting point of N#Cc1ncn2c(C(F)(F)F)cc(-c3cccnc3)nc12 ?
-- reply 222 °C

-- ask Looking for the measured melting point of CC(=O)c1cc(CS(C)(=O)=O)ccc1O , can you help?
-- reply 142 to 144 °C

Okay, now this molecule:
-- ask Using the record for CC(C)Cc1cc2cc(OCC(=O)O)c(Cl)c(Cl)c2s1 , report its melting point.
-- reply 164 to 165 °C

---

The entries below come with measured melting point values attached.

-- ask Looking for the measured melting point of CCC12CCC3=C(CCc4cc(O)ccc43)C1CCC2O (centres undefined) , can you help?
-- reply 234 to 238 °C

-- ask Recorded melting point of Cc1ccc(OC2CCN(C(=O)C(=O)Nc3ccc4nc(S)[nH]c4c3)CC2)cc1 , please.
-- reply 311 to 314 °C

-- ask Tell me the measured melting point of CN(C)CCn1c(=O)c2c3oc4ccccc4oc3c3[nH]c4ccc(O)cc4c3c2c1=O , please.
-- reply > 360 °C

Turning now to a further record.
-- ask Query: melting point; subject: CCOC(=O)C(C)(C)S(=O)(=O)c1ccc(OC)cc1
-- reply 196 °C

---

compounds and their reported melting point

Use the examples below as a reference point.
-- ask So what's the measured melting point for this one? CC1=C(C)C(=O)N(c2ccc(Cl)c(C=C(Cl)C#N)c2)C1=O
-- reply 139 to 140 °C

-- ask If you can, please state the reported melting point value of NC(=O)Cc1cc(Oc2ccc3c(ccn3C(=O)Nc3cc(N4CCOCC4)cc(C(F)(F)F)c3)c2)ncn1 .
-- reply 144 to 146 °C

-- ask Which measured melting point value corresponds to N#Cc1ccc(-c2cccc(-c3cn4cc(C#N)ccc4n3)c2)cc1 ?
-- reply 290 to 292 °C

Next up:
-- ask Please look up its melting point: CCNC(=O)N1C(=O)Cc2cc(Cl)ccc21
-- reply 121 to 122 °C

---

Recorded measurements of melting point, one per entry

-- ask Entry under review: Nc1nc(N2CCOCC2)c2ncn(C3CC(F)C(CO)O3)c2n1 (stereo unspecified) . Reported melting point?
-- reply 165 to 167 °C

---

Each entry below lists one item and its recorded melting point value.

# example entries with known answers
-- ask Suppose we examine the compound N#Cc1nn(-c2c(Cl)cc(C(F)(F)F)cc2Cl)cc1C#CBr ; what melting point value has been reported?
-- reply 166 to 168 °C

-- ask Using the record for COC(=O)c1ccc(OCCNC(=O)C2Cc3ccccc3N2S(=O)(=O)c2ccc(-c3cccc(C(F)(F)F)c3)cc2)c(F)c1 (centres undefined) , report its melting point.
-- reply 65 to 70 °C

-- ask Which melting point is reported for this compound? CC1(C)OC(c2ccc(S(C)(=O)=O)cc2)=C(c2ccc(F)c(Cl)c2)C1=O
-- reply 162 to 164 °C

-- ask Form field: reported melting point of O=C1c2ccccc2C(=O)N1OCC1OC(n2ccc(=O)[nH]c2=O)CC1O (centres undefined)
-- reply 241 to 242 °C

Now for a further compound.
-- ask Name the reported melting point value associated with the compound c1ccc(Oc2ccc(OCCOn3cccn3)cc2)cc1
-- reply 83 to 85 °C

---

Each entry below carries its reported melting point.

-- ask Can you share its melting point? I mean this compound: O=c1c2c([nH]n1-c1ccc(Cl)cc1F)CCCCC2
-- reply 197 to 201 °C

-- ask Consider the compound Cc1ccc(S(=O)(=O)n2c(Br)cc(-c3ccc(F)cc3)c2-c2ccc(S(C)(=O)=O)cc2)cc1 and give its measured melting point.
-- reply 207 to 208 °C

-- ask So what's the measured melting point for this one? N#CNc1ccc2c3c(cccc13)CC2
-- reply 163 to 165 °C

-- ask What does the record list as melting point for CCCCC(CNc1nc(C)c(OC(=O)OCC)c(C)n1)c1ccccc1 (stereo not given) ?
-- reply 105 to 107 °C

Attention now shifts to the item below.
-- ask Request the reported melting point associated with O=C1CCC(N2Cc3c(OCc4ccc(CSc5nc6ccccc6[nH]5)cc4)cccc3C2=O)C(=O)N1 (stereo not given)
-- reply 160 to 162 °C

---

Let's look at some molecules and their measured melting point.

Use these answered entries as a reference point.
-- ask # get_value(readout='melting point', item= COCCO[C@@H]1c2ccc3c(nc(C)n3C)c2O[C@H](c2ccccc2)[C@H]1O )
-- reply 163 °C

-- ask Data request, read-out melting point, for O=Cc1cccc(-c2cc3c4c(ccn4C(=O)CNC3)c2)c1
-- reply 192 to 194 °C

-- ask Record request: melting point value, item CC(=O)Nc1cc([N+](=O)[O-])ccc1OCC(C)O (stereo not given)
-- reply 123 °C

-- ask So what does the record say about melting point for O=C(O)c1ccc(C=CC(=O)N2CCc3c([nH]c4ccccc34)C2c2ccc3c(c2)OCO3)cc1 (stereo not given) ?
-- reply 254 to 256 °C

-- ask melting point for Cc1cc2c(cc1OC(=S)N(C)C)C(C)(C)CCC2(C)C ?
-- reply 102 to 103 °C

Further cases:
-- ask Reported melting point for Cc1cc(-c2nn(CC(C)C)c(=O)c(O)c2C)ccc1F : what is it?
-- reply 107 to 110 °C

-- ask I'd like to know its melting point. The molecule in question is Cc1ccc(NC(=O)N2CC(C)(C)NC(C)(C)CC2=O)cc1
-- reply 126 °C

-- ask Entry CC(=O)N[C@H]1C(n2cc(Cl)cnc2=O)O[C@H](COC(C)=O)[C@@H](OC(C)=O)[C@@H]1OC(C)=O (stereo not given in full) : reported melting point = ?
-- reply 165 to 167 °C

-- ask // query melting point value for entry CCOC(=O)C(=CNc1ccc(F)c(SCC)n1)C(=O)OCC
-- reply 77.5 to 78.5 °C

-- ask Field request: melting point | item: CN1C(=O)c2ccccc2C(CCO)N1c1cccc([N+](=O)[O-])c1 (stereo not given)
-- reply 183 to 184 °C

-- ask So what does the record say about melting point for C1=Nc2cc3c(cc2=C1)N=c1ccccc1=3 ?
-- reply 210 to 211 °C

-- ask State the recorded melting point for this entry: Cc1cc2occc2c(Cl)n1
-- reply 64.5 to 66 °C

-- ask Query (molecule): Cc1cc(-c2nc3cccnn3c2-c2ccnc(NC(=O)c3ccc(Cl)cc3)c2)ccc1F ; field requested: melting point
-- reply 207 to 209 °C

-- ask What value of measured melting point is listed for CCOC(=O)CNc1ccc2ncccc2c1 ?
-- reply 122 to 123 °C

-- ask Recorded melting point of CC(=O)OC[C@H](Cc1ccccc1)NC(=O)[C@H](Cc1ccccc1)NC(=O)c1ccccc1 , please.
-- reply 186 to 187 °C

-- ask What melting point value was documented for this molecule, CCOC(=O)c1c(CN(CC)CC)nc2sc3c(c2c1-c1ccc(OC)c(OC)c1)CCN(C(C)=O)C3 ?
-- reply 72 to 75 °C

-- ask Consider the molecule Cc1oc(-c2ccc(C(F)(F)F)cc2)nc1-c1ccc(-c2cc(Br)c(OCC(=O)O)c(Br)c2)cc1 and give its measured melting point.
-- reply 165 to 166 °C

-- ask What does the data say about its melting point? Entry: CCN(Cc1cc(Br)ccc1OCc1ccccc1)c1ccc(-c2nnn[nH]2)cc1
-- reply 206 to 208 °C

-- ask Name the reported melting point value associated with the molecule CC(C)Oc1ccc2c(c1)Oc1cc(F)ccc1S2(=O)=O
-- reply 135 to 136 °C

-- ask Please report the recorded melting point for O=c1ncc(F)cn1CCO .
-- reply 134 to 136 °C

-- ask Please report the recorded melting point for O[C@@H]1CN=C(c2ccc(Cl)c(Cl)c2)O[C@H]1c1ccccc1 (racemic) .
-- reply 158 °C

-- ask Given Cc1c(C)c2c(c(C)c1NC(=O)c1ccc(F)cc1)C(c1ccccc1)C(C)(C)O2 (stereo not given) , state its recorded melting point.
-- reply 156 to 158 °C

---

compounds and their reported melting point

Examples from the recorded data:
-- ask Any idea what melting point was measured for O=S1(=O)NCN(C2CCCCCC2)c2cc(Cl)ccc21 ?
-- reply 149 to 151 °C

-- ask Consider the compound shown here: Nc1cc(=O)n(Cc2cc(Cl)ccc2Cl)[nH]1 What is its recorded melting point?
-- reply 195 to 196 °C

New cases:
-- ask Value lookup for melting point; key = CCCCCn1c2ccc(C(=S)N3CCCCC3)cc2c2ccc(OC)cc21
-- reply 116 to 118 °C

-- ask What measured melting point goes with Cc1nnc(-c2ccc3occ(-c4ccc5c(c4)C(C)(C)CS5=O)c3c2)o1 (centres undefined) ?
-- reply 179 to 180 °C

---

compounds and their reported melting point

Recorded results for 5 compounds are shown here.
-- ask Consider the compound shown here: COc1ccc(CC2CCC3=C(C2)CC(CO)C(=O)N3)cc1 (centres undefined) What is its recorded melting point?
-- reply 165 to 168 °C

-- ask Reported melting point for Cc1nc(N)c2ncn(CCOCc3ccncc3)c2c1C : what is it?
-- reply 195 to 196 °C

-- ask Please look up its melting point: O=C1C(Cl)=C(c2ccccc2)C(=O)N1c1ccc(Cl)cc1
-- reply 116 to 117 °C

-- ask Which melting point is reported for this compound? CCN(C(=O)N(C)C(=O)NC)c1ccccc1
-- reply 57 to 58 °C

-- ask melting point for CN1CC(=O)Nc2ccccc2C1 ?
-- reply 113 to 114 °C

New cases:
-- ask Endpoint output: melting point of CCOc1c(C2=C(C(C)(C)C)C(C)(C)CO2)oc2ccc(OC)cc12 . Value?
-- reply 60 to 61 °C

-- ask Fill blank: measured melting point of the compound COc1cc(C(=O)n2ccnc2)cc([N+](=O)[O-])c1OC is ____.
-- reply 136 to 137 °C

-- ask Look up melting point: Cc1c(C=O)c2ccccc2n1C
-- reply 129 °C

The reported measurements were obtained from a melting point compilation (Tetko et al.; mined from patent text by program, amines drawn as free bases though some values may be those of a salt).
